system.under.test: Epidermal growth factor receptor (Homo sapiens)
experimental.protocol: compounds binding epidermal growth factor receptor – biochemical, small-molecule microarray, 635 nm fluorescence, primary screen (AID 1104);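 further: score merges 667 nm emission intensity with spot signal to noise over triplicate slides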
run.parameters: EGFR binding, higher = more signal

molecule	composite z-score
O=C(NCC(O)CO)[C@@]1(CCS(=O)(=O)c2ccccc2)N=C(c2ccc(OCCCO)cc2)O[C@H]1c1ccccc1 (some centres undefined)	-0.928
COc1ccccc1CN1C(=O)c2ccccc2[C@](Cc2ccccc2I)(C(=O)NCC(C)C)[C@@H]1c1ccc(CO)cc1	-1.19
C=C(CCCC)C(=O)CC[C@@H](OC(=O)c1ccccc1-c1ccccc1C(=O)O)c1ccccc1OCCO	-0.215
[N-]=[N+]=Nc1ccccc1[C@H]1OC(c2ccc(OCCCO)cc2)=N[C@@]1(Cc1ccccc1)C(=O)NCC(O)CO (some centres undefined)	-0.942
O=C1O[C@H](c2ccccc2)[C@H](c2ccccc2)N2[C@H]1[C@@H](C(=O)N1CCN(c3ncccn3)CC1)[C@]1(C(=O)Nc3ccc(C#CCCO)cc31)[C@H]2c1ccc(O)cc1	0.397
CC(C)(C)OC(=O)CC[C@]1(C(=O)NCC(O)CO)N=C(c2ccc(OCCCO)cc2)O[C@H]1c1ccccc1N=[N+]=[N-] (some centres undefined)	-0.0913
CC(C)C(CO)N1C(=O)[C@@H]2C3C(=O)OCCC/C=C\[C@H]3OC23C=CCN(Cc2ccccc2)C(=O)[C@@H]13 (some centres undefined)	-1.01
CCOC(=O)C[C@H]1[C@H](OC(=O)c2ccccc2-c2ccccc2)[C@@H](NC(=O)c2ccc3ccccc3c2)c2cc(OCCCO)ccc2N1C(=O)Cc1ccc(OC)cc1	-0.201
O=C(NC1CC1)[C@@H]1c2ccccc2C(=O)N(CC23CC4CC(CC(C4)C2)C3)[C@H]1c1ccc(CO)cc1	1.03
O=C(O)[C@H](Cc1ccccc1)n1cc(C2(O)CCCCC2)nn1	0.213
O=C1[C@H]2C=C(I)[C@H](C[C@@H]2OCCCCCCO)[C@@]12CO2	0.677
CC1CC/C=C\[C@H]2OC34C=CCN(c5ccc(Cl)cc5)C(=O)[C@H]3N(CCCCCCO)C(=O)[C@]4(C)C2C(=O)O1 (some centres undefined)	-0.726
CC1CC/C=C\[C@H]2OC34C=CCN(C(C)(C)C)C(=O)[C@H]3N(CCCO)C(=O)[C@@H]4C2C(=O)O1 (some centres undefined)	-0.927
CN(C)CCCC[C@@H]1NC(=O)[C@@H]2C[C@H](C(=O)NCCCCCCNC(=O)CS)[C@H](c3ccc(O)cc3)N2C1=O	0.954
C=CC[C@@]12N=C(c3ccc(OCCCO)cc3)O[C@@H]1c1ccccc1N(CCC)C2=O	0.153
C=CCNC(=O)[C@H]1[C@@H]2C(=O)O[C@@H](c3ccccc3)[C@@H](c3ccccc3)N2[C@@H](c2ccc(OCCO)cc2)[C@]12C(=O)Nc1ccc(C#CC3(O)CCCCCC3)cc12	0.982
C=CCC(OC(C)=O)[C@@H]1[C@@H](N(Cc2ccc(-c3ccccc3)cc2)C(=O)c2cccc3ccccc23)c2cc(OCCCO)ccc2N1C(=O)Cc1ccc(OC)cc1 (some centres undefined)	0.0253
C=CC[C@]1(C(=O)NCC(O)CO)COC(c2ccc(OCCCO)cc2)=N1 (some centres undefined)	-1.18
COCCOC(=O)N1C(=O)[C@@]2(c3cc(C#CCC(C(=O)OC)C(=O)OC)ccc31)[C@H](C(N)=O)[C@H]1C(=O)O[C@H](c3ccccc3)[C@H](c3ccccc3)N1[C@@H]2c1ccc(O)cc1	0.69

---

experimental.protocol: budding yeast growth changes without added modifier – OD600, strain BY4716, 24 h, basal condition, primary screen (AID 1173)
run.parameters: S. cerevisiae BY4716 growth, OD600, 24 h; higher = more signal, called active from +8 up or from −8 down
Definition: the class of an entry is the range in lower bin = under -0.4, middle bin = from -0.4 up to 0.4, upper bin = 0.4 and over that contains its z-score.

molecule	classification
Cc1ccc(C(C)CC(O)C2C=CC3C(=O)N(C)C(=O)C3N2Nc2ccccc2)o1 (stereo not given)	middle bin
CC1CC/C=C\[C@H]2OC34C=CCN(c5ccc6ccccc6c5)C(=O)[C@H]3N(C(C)CO)C(=O)[C@@H]4C2C(=O)O1 (stereo not given in full)	middle bin
C=CCOC(=O)[C@@H]1[C@H]2C(=O)O[C@H](c3ccccc3)[C@H](c3ccccc3)N2[C@H](c2ccc(OCCOC(=O)[C@H]3C[C@H]4C(=O)N5CCC[C@H]5C(=O)N4[C@H]3c3cccc(OCCO)c3)cc2)[C@@]12C(=O)Nc1ccc(I)cc12	upper bin
CN(C)CCCNC(=O)[C@@H]1c2ccccc2C(=O)N(Cc2ccccc2C(F)(F)F)[C@H]1c1ccc(CO)cc1	lower bin
NC(=O)NCC#Cc1ccc2c(c1)[C@]1(C(=O)N2)[C@H](c2ccc(OCCO)cc2)N2[C@H](c3ccccc3)[C@H](c3ccccc3)OC(=O)[C@H]2[C@@H]1C(=O)O	lower bin
CCCCC(O)C1C=CC2C(=O)N(c3ccccc3)C(=O)C2N1Nc1ccc([N+](=O)[O-])cc1 (stereo not given)	lower bin
C=CCC(OC(C)=O)[C@@H]1[C@@H](N(Cc2cccc3ccccc23)C(=O)Cc2ccc(OC)cc2)c2cc(OCCCO)ccc2N1C(=O)Cc1ccc2ccccc2c1 (stereo not given in full)	upper bin
CC1CC/C=C\[C@H]2OC34C=CCN(C(C)(C)C)C(=O)[C@H]3N(CCCO)C(=O)[C@@H]4C2C(=O)O1 (stereo not given in full)	upper bin
CC(C)(C)N1CC=CC23O[C@@H]4C=CCOC(=O)[C@@H]4[C@H]2C(=O)N(CCO)[C@@H]3C1=O (stereo not given in full)	middle bin

---

system.under.test: Alpha-bungarotoxin (Bungarus multicinctus) (UniProt P60615)
Sequence (P60615 whole entry, looked up): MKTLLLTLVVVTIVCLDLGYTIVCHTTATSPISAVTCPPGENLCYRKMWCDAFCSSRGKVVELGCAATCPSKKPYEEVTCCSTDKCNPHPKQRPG
experimental.protocol: compounds binding labelled alpha-BTX control protein – biochemical, small-molecule microarray, Alexa647 label, 635/667 nm fluorescence, artefact control for SMM control protein annotation, profiling panel (AID 1117)
run.parameters: alpha-BTX-A647 binding fluorescence, higher = more signal
composite z-score overview
property.name: composite z-score

compound	property.name	meas.value
CC=CC(O)C1C=CC2C(=O)NC(=O)C2N1Nc1ccc(Cl)cc1Cl (stereo unspecified)	composite z-score	0.64
COCCn1c(C(=O)N(C)C)cc2c1C[C@H]1CN(C(=O)c3ccccc3)[C@@](Cc3ccc(OC)cc3)(C(=O)OC)[C@@H]21	composite z-score	0.0924
CN(C)CCCNC(=O)[C@@H]1c2ccccc2C(=O)N(Cc2ccccc2C(F)(F)F)[C@H]1c1ccc(CO)cc1	composite z-score	0.542
CC[C@@H]1C=C(C(=O)O)[C@H](c2ccc(OC)cc2)N1S(=O)(=O)c1ccc(C)cc1	composite z-score	0.0708
CN(C)CCCNC(=O)[C@@]1(Cc2ccccc2I)c2ccccc2C(=O)N(C2CCCCC2)[C@H]1c1ccc(CO)cc1	composite z-score	2.57
C=C(C)[C@@H]1CC=C(C(O)C2C=CC3C(=O)N(c4ccccc4)C(=O)C3N2Nc2ccc([N+](=O)[O-])cc2)CC1 (stereo partly specified)	composite z-score	0.839
C=CCN1C(=O)[C@@]2(O[C@@H](CCn3cc([C@H](O)c4ccccc4)nn3)[C@H]([Si](C)(C)c3ccc(OC)cc3)[C@H]2C)c2cc(N3C(=O)c4cccc5cccc3c45)ccc21	composite z-score	-0.0541
CN(C)CCCNC(=O)[C@@]1(C)c2ccccc2C(=O)N(Cc2ccc(OC(F)(F)F)cc2)[C@H]1c1ccc(CO)cc1	composite z-score	1.5
COc1cc(C(O)C2C=CC3C(=O)N(c4ccccc4)C(=O)C3N2Nc2ccccc2)cc(OC)c1OC (stereo unspecified)	composite z-score	1.9
COc1cc(CO)cc(I)c1O[C@H]1C=C(C(=O)NCCO)C[C@@H]2O[C@H]12	composite z-score	2.81
CC(C)N1C(=O)c2ccccc2[C@@H](C(=O)NCC(F)(F)F)[C@@H]1c1ccc(CO)cc1	composite z-score	-0.143
CCOC(=O)C[C@H]1[C@H](OC(=O)c2ccccc2-c2ccccc2)[C@@H](NC(=O)c2ccc3ccccc3c2)c2cc(OCCCO)ccc2N1C(=O)Cc1ccc(OC)cc1	composite z-score	0.264
COCCOC(=O)N1C(=O)[C@@]2(c3ccccc31)[C@H](c1ccc(O)cc1)N1[C@H](c3ccccc3)[C@H](c3ccccc3)OC(=O)[C@H]1[C@@H]2C(=O)N1CCCCCCC1	composite z-score	3.04
CC(C)NC(=O)[C@@]1(c2ccc([N+](=O)[O-])cc2)CC(=O)N(CC23CC4CC(CC(C4)C2)C3)[C@@H]1c1ccc(CO)cc1	composite z-score	1.37
CCOC(=O)c1cn(C[C@H](Cc2ccccc2)NC(=O)N[C@H](CO)CCc2oc(C(C)=O)c(C(=O)OC)c2C(=O)OC)nn1	composite z-score	0.491
COC(=O)[C@@]1(Cc2ccc(F)cc2)[C@H]2c3cc(C(=O)N4CCCC4)n(Cc4ccccn4)c3C[C@H]2CN1C(=O)c1ccccc1	composite z-score	0.23
COCCOC(=O)N1C(=O)[C@@]2(c3cc(C#CCCO)ccc31)[C@H](C(N)=O)[C@H]1C(=O)O[C@H](c3ccccc3)[C@H](c3ccccc3)N1[C@@H]2c1ccccc1OCCO	composite z-score	2.08
CC(C)=CCCC(C)=CC(O)C1C=CC2C(=O)NC(=O)C2N1Nc1ccccn1 (stereo unspecified)	composite z-score	1.2
C[C@@H]1ON(c2ccc(I)cc2)[C@H](c2cccc(NC(=O)OCC3c4ccccc4-c4ccccc43)c2)[C@H]1C(=O)N1C(=O)OC[C@H]1Cc1ccccc1	composite z-score	-0.0652
C=CCOC(=O)[C@@H]1[C@H]2C(=O)O[C@H](c3ccccc3)[C@H](c3ccccc3)N2[C@H](c2ccc(OCCOC(=O)[C@H]3C[C@H]4C(=O)N5CCC[C@H]5C(=O)N4[C@H]3c3cccc(OCCO)c3)cc2)[C@@]12C(=O)Nc1ccc(I)cc12	composite z-score	0.659
[N-]=[N+]=Nc1ccccc1[C@H]1OC(c2ccc(OCCCO)cc2)=N[C@@]1(Cc1ccccc1)C(=O)NCC(O)CO (stereo partly specified)	composite z-score	1.57
COc1ccc(C(=O)Nc2cccc(CN3C(=O)[C@]4(O[C@H](CC(=O)N5Cc6ccccc6C[C@H]5CO)[C@@H]([Si](C)(C)c5ccc(OC)cc5)[C@@H]4C)c4ccccc43)c2)cc1	composite z-score	1.12
COc1cc(OC)c(C(O)C2C=CC3C(=O)N(c4ccccc4)C(=O)C3N2Nc2ccc(C(C)C)cc2)cc1Br (stereo unspecified)	composite z-score	1.92
COC(=O)[C@@]1(Cc2ccccc2)[C@H]2c3cc(C(=O)N(C)C)n(CCSC(=N)N)c3C[C@H]2CN1C(=O)c1ccccc1	composite z-score	-0.351
CC(C)C(=C=CC[C@H](O)c1ccccc1OCCO)C[C@H](O)c1cc(Cl)cc(Cl)c1O	composite z-score	0.919
COc1ccc([Si](C)(C)[C@H]2[C@H](CC(=O)N3Cc4ccccc4C[C@H]3CO)O[C@@]3(C(=O)N(C)c4ccccc43)[C@@H]2C)cc1	composite z-score	2.48
